// data source = patent US10995186B2

# Tested on: co-culture (75% SKOV3 and 25% HFF) cells
# testDetails: cells
# testContext: Homo sapiens, 96 h, read-out: IC50 Microspheres
assayEndpoint: pIC50
Scale for pIC50: -log10 of concentration given in mol/L; no unit attached.

// COc1cccc2c1C(=O)c1c(O)c3c(c(O)c1C2=O)C[C@@](O)(C(=O)CO)C[C@@H]3O[C@H]1C[C@H](N)[C@H](O)[C@H](C)O1 [doxorubicin, Doxorubicin] : pIC50 value = 6.54
